Origin of values: patent US6489320B1

# melting point values compiled below

Study these solved cases before continuing.
INSERT INTO results (compound, parameter, endpoint_value) VALUES
  ('C[C@@H]1O[C@](/C=C/C2CC2)(C(F)(F)F)c2cc(Cl)ccc2NC1=O [Example 39]', 'melting point', '175 to 175.5 °C'),
  ('CC[C@H]1O[C@](C#CC2CC2)(C(F)(F)F)c2cc(Cl)ccc2NC1=O (relative stereo)', 'melting point', '129 to 130 °C');

What measured melting point goes with O=C1COC(C#Cc2cccnc2)(C(F)(F)F)c2cc(Cl)ccc2N1 (centres unmarked) ?
219 to 221 °C

What measured melting point goes with C[C@@H]1O[C@](/C=C/C2CC2)(C(F)(F)F)c2c(ccc3c2OCO3)NC1=O (relative stereo) ?
236 to 237 °C

* * *

# melting point values compiled below
Where a name gives a salt, the structure may show the parent alone.

Study these solved cases before continuing.
INSERT INTO measurements (compound, endpoint_value) VALUES
  ('CC(C)C#CC1(C(F)(F)F)OCC(=O)Nc2ccc(F)cc21 (centres unmarked)', '172 to 173 °C'),
  ('O=C1COC(C#Cc2ccccc2)(C(F)(F)F)c2cc(Cl)ccc2N1 (centres unmarked) (as salt: sodium)', '190 to 191 °C'),
  ('CC[C@@H]1O[C@](C#CC2CC2)(C(F)(F)F)c2cc(Cl)ccc2NC1=O (relative stereo)', '180 to 181 °C');

What measured melting point goes with CCC#CC1(C(F)(F)F)OC(c2ccccc2)C(=O)Nc2ccc(Cl)cc21 (centres unmarked) ?
198 to 199 °C

What measured melting point goes with CC(C)C#C[C@]1(C(F)(F)F)OCC(=O)Nc2ccc(Cl)cc21 (single isomer, unassigned) ?
135 to 136 °C

What measured melting point goes with C=C[C@@H]1O[C@](C#CC2CC2)(C(F)(F)F)c2c(ccc(F)c2F)NC1=O (relative stereo) ?
171 to 172 °C

What measured melting point goes with CC[C@@H]1O[C@](C#CC2CC2)(C(F)(F)F)c2cc(F)ccc2NC1=O (relative stereo) ?
186 °C

What measured melting point goes with CCC#CC1(C(F)(F)F)OCC(=O)Nc2ccc(Cl)cc21 (centres unmarked) ?
167 to 168 °C

* * *

Parameter: melting point

INSERT INTO assay_data (compound, endpoint_value) VALUES
  ('COc1ccc2c(c1)C(CCC(C)C)(C(F)(F)F)OCC(=O)N2 (stereo not shown) [Example 21]', '129 to 130 °C'),
  ('O=C1COC(/C=C/c2ccco2)(C(F)(F)F)c2cc(Cl)ccc2N1 (stereo not shown) [Example 10]', '199 to 200 °C'),
  ('CC(C)C#CC1(C(F)(F)F)OCC(=O)Nc2ccc(Cl)cc21 (stereo not shown) [Example 3]', '183 to 183.5 °C'),
  ('CC(C)C#CC1(C(F)(F)F)OCC(=O)Nc2ccc(F)c(F)c21 (stereo not shown) [Example 13]', '192.5 to 193.5 °C'),
  ('CCC[C@@H]1O[C@](C#CC2CC2)(C(F)(F)F)c2cc(Cl)ccc2NC1=O (relative stereo) [Example 14a]', '191 to 192 °C'),
  ('CC(C)[C@@H]1O[C@](C#CC2CC2)(C(F)(F)F)c2cc(Cl)ccc2NC1=O (relative stereo) [Example 15]', '167 °C');

What measured melting point goes with CCC[C@H]1O[C@](C#CC2CC2)(C(F)(F)F)c2cc(Cl)ccc2NC1=O (relative stereo) [Example 14b] ?
141 °C

What measured melting point goes with CC[C@@H]1O[C@](C#CC2CC2)(C(F)(F)F)c2c(ccc3c2OCO3)NC1=O (relative stereo) [Example 53] ?
201 to 202 °C

What measured melting point goes with C[C@@H]1O[C@](C#CC2CC2)(C(F)(F)F)c2c(ccc3c2OCO3)NC1=O (relative stereo) [Example 52] ?
252 °C

What measured melting point goes with O=C1COC(C#CC2CC2)(C(F)(F)F)c2cc(Cl)ccc2N1 (stereo not shown) [Example 18] ?
199.5 to 200.5 °C

What measured melting point goes with CC[C@@H]1O[C@](/C=C/C2CC2)(C(F)(F)F)c2c(ccc3c2OCO3)NC1=O (relative stereo) [Example 55] ?
188 to 190 °C

What measured melting point goes with C[C@@H]1O[C@](C#CC2CC2)(C(F)(F)F)c2cc(F)ccc2NC1=O (relative stereo) [Example 48] ?
184 to 185 °C

What measured melting point goes with C=C[C@@H]1O[C@](/C=C/C2CC2)(C(F)(F)F)c2cc(Cl)ccc2NC1=O (relative stereo) [Example 42] ?
165.5 to 166.5 °C
